src = paper PMC4212957

Molecular target: HLA-DRB1*04:01 (Homo sapiens, UniProt P01903+P01911, A100K/A169T/F76Y/I96L/K127E/L162R/M171V/N62H/P40V/Q125Y/R42H/S133A/S149N/S66Y/V115G/V209L/W38E)
Settings: competitive ELISA; ratio IC50 of peptide / IC50 of reference peptide HA 306–318; lower = higher affinity; ratio 20 or less high, 20–100 moderate; three independent experiments
# Relative binding affinity of peptide to HLA-DR molecules DRB1*0401 per entry

// below: answered substances
| Substance | Observed |
| --- | --- |
| 8: SseB overlapping library peptide, residues 71–90 (ARNTQEKSNEMDEVIAKAAK) [Peptide 8] | > 145 |
| 16: SseB overlapping library peptide, residues 151–170 (NTDLMSQGQITIQKMSQELN) [Peptide 16] | > 145 |
| 11: SseB overlapping library peptide, residues 101–120 (EDVIKYMRDNGILIDGMTID) [Peptide 11] | 17 |
| 4: SseB overlapping library peptide, residues 31–50 (DDLSQQNPFAEGYGVLLILL) [Peptide 4] | > 145 |
| 15: SseB overlapping library peptide, residues 141–160 (KAALDNDANRNTDLMSQGQI) [Peptide 15] | > 145 |
| 17: SseB overlapping library peptide, residues 161–180 (TIQKMSQELNAVLTQLTGLI) [Peptide 17] | > 145 |

In: Supply reported Relative binding affinity of peptide to HLA-DR molecules DRB1*0401 belonging to this substance: 14: SseB overlapping library peptide, residues 131–150 (KLDKGGLQAIKAALDNDANR) [Peptide 14]
Out: 13

In: Supply reported Relative binding affinity of peptide to HLA-DR molecules DRB1*0401 belonging to this substance: 10: SseB overlapping library peptide, residues 91–110 (GDAKTKEEVPEDVIKYMRDN) [Peptide 10]
Out: > 145

In: Supply reported Relative binding affinity of peptide to HLA-DR molecules DRB1*0401 belonging to this substance: MSSGNILWGSQNPIVFKNSF [Peptide 1]
Out: 12

In: Supply reported Relative binding affinity of peptide to HLA-DR molecules DRB1*0401 belonging to this substance: 7: SseB overlapping library peptide, residues 61–80 (FIEVQKNAERARNTQEKSNE) [Peptide 7]
Out: 109

In: Supply reported Relative binding affinity of peptide to HLA-DR molecules DRB1*0401 belonging to this substance: 13: SseB overlapping library peptide, residues 121–140 (DYMAKYGDHGKLDKGGLQAI) [Peptide 13]
Out: > 145
